target: human HDAC2 (Homo sapiens (Human), UniProt Q92769); test: HDAC2 inhibition assay (modified FLUOR DE LYS, 384-well); assay type: biochemical; settings: […] enzyme, 40 μM substrate BML-KI104, 3 h pre-incubation; read-out: HDAC2 IC50
Sequence (Q92769 whole entry): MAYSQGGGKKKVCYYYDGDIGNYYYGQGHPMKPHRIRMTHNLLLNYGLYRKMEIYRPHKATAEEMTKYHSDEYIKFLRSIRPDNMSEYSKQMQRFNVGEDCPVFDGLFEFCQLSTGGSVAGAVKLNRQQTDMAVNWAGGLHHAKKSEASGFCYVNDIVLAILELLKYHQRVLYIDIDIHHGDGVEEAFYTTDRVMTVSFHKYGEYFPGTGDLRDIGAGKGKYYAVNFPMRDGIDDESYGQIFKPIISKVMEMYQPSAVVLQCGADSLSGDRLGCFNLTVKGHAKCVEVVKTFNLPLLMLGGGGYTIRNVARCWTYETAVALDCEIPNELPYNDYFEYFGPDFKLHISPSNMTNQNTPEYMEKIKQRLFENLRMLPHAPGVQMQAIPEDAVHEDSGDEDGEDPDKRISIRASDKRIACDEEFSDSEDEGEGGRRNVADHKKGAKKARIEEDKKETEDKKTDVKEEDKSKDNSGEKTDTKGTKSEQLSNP
Provide the recorded IC50 for the entries that follow.
One number for each entry, in nM.

Field: example entries. Status: answers known.
CC(C)n1ccc2cc(-c3cnc([C@@H](N)CCCCCC(=O)c4ncco4)[nH]3)ccc2c1=O | 17
COc1cc2c(ccc(=O)n2C)cc1-c1cnc([C@@H](N)CCCCCC(=O)c2ncco2)[nH]1 | 8.4
COc1nc2ccccc2cc1-c1cnc([C@H](CCCCCC(=O)c2ncco2)NC(=O)c2ccc(OC(F)F)nc2)[nH]1 | 16

In the following, a different molecule is considered.
Query `CN[C@@H](CCCCCC(=O)c1ncco1)c1ncc(-c2ccc3nc(C)ccc3c2)[nH]1` yields IC50 of 7

// provenance: patent US12331044B2
